This collection of values is drawn from patent US10300155B2.

Measured Ki of individual entries
Experimental system: α-synuclein fibrils (Homo sapiens)
Construct: made in house; host or cells: E. coli BL21(DE3)RIL
Measurement description: ThT competitive assay for α-synuclein fibrils (Table 1)
Assay type: binding
Reported conditions: average; read-out: Ki (nM) α-syn (avg)
Give the value, in units of nM, as a plain number.

Observe how each entry below is paired with its result.
| Given smiles | Ki (nM) |
| --- | --- |
| Fc1ccc(/C=C/c2cccs2)cc1 | 1000 |
| Ic1ccc(/C=C/c2ccoc2)cc1 | 134 |
| O=[N+]([O-])c1ccc(/C=C/c2ccncc2)cc1 | 52.8 |
| COc1ccc(/C=C/c2cnccn2)cc1 | 31.9 |
| Brc1ccc2nc(/C=C/c3cnccn3)ccc2c1 | 453 |

Query: # get_value(readout='Ki', item= O=C(Nc1ccc(Br)cc1)c1ccc(/C=C/c2ccncc2)cc1 )
Reply: 10.4

Query: For COc1ccc2nc(/C=C/c3ccncc3Br)ccc2c1 then?
Reply: 168

Query: For COc1ccc2c(c1)NC(=O)/C(=C/C=C/c1ccc([N+](=O)[O-])cc1)O2 then?
Reply: 598

Query: For O=C(Nc1ccc(OCCF)cc1)c1ccc(/C=C/c2ccncc2)cc1 then?
Reply: 32.1

Query: For COc1ccc(/C=C/c2cc(C)cs2)cc1 then?
Reply: 252
